Items are presented alongside their recorded viability.
Experiment: Her2 expression decrease, cell viability multiplex – SKBR3 breast tumor cells, AlphaScreen, ATP viability, primary screen (AID 461);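 note: percent of carrier control wells set as 100% viability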
Conditions: SKBR3 Her2 protein level, 18-24 h, measured here: SKBR3 viability, ATP luminescence, at 10 µM
Kindly provide the numeric value in % only, without the unit symbol.

Here are 3 compounds together with their reported answers.
| Compound | Readout type | Endpoint unit | Reported measurement |
| --- | --- | --- | --- |
| N#Cc1ccc(-c2csc(NC(=O)C3CC3)n2)cc1 | viability | % | 95.5 |
| Cc1cc(C)n2nc(SCc3nc4ccccc4[nH]3)nc2n1 | viability | % | 87.5 |
| COc1ccc(CCNc2oc(COc3ccccc3Cl)nc2C#N)cc1OC | viability | % | 90 |

API: the following record is the query input.
Form field viability, entry COc1cccc(C2=NOC(C(=O)Nc3cc(C)nn3-c3ccccc3)C2)c1OC (centres undefined) : 93

* * *

Items are presented alongside their recorded inhibition.
Assay: growth suppression of yeast trafficking mutant, preliminary HTS, modulators of trafficking downstream of Golgi apparatus project, 1536-format plate, OD 615 nm (AID 637)
Details: yeast transport mutant growth, absorbance 615 nm, 18 h; stronger effect = higher value
Kindly provide the numeric value in % only, without the unit symbol.

Here are 3 compounds together with their reported answers.
| Compound | Endpoint unit | inhibition |
| --- | --- | --- |
| COCCNC(=O)CN1C(=O)CSc2ncccc21 | % | -0.33 |
| CCOC(=O)N1CCC(NC(=O)c2ccc(CS(=O)(=O)c3c(Cl)cccc3Cl)o2)CC1 | % | 0.83 |
| CC12CN3CC(C)(CN(C1)C3c1ccc(Cl)cc1Cl)C2=O (centres undefined) | % | -3 |

Form field inhibition, entry `COc1ccc(NC(=O)CC2CCCCC2)cc1OC` : -1.09

Form field inhibition, entry `CCOc1ccc(NC(=O)CN(c2cc(C)cc(C)c2)S(=O)(=O)c2c(C)noc2C)cc1` : -1.83

Form field inhibition, entry COc1cc(C(=O)N2c3ccccc3CC2C)cc(OC)c1OC (centres undefined) : -3.33

Form field inhibition, entry CCN(CC)C(=O)C1CCCN(c2ncnc3c2cnn3-c2ccc(Cl)cc2)C1 (centres undefined) : -2.17

Form field inhibition, entry `CN(C)c1oc(-c2ccccc2F)nc1C#N` : 6.56

Form field inhibition, entry `CNC(=O)CN(c1ccc(C(C)C)cc1)S(C)(=O)=O` : -4

* * *

Assay: doxorubicin toxicity protection in MRP-1 cells – H69AR cells, CellTiter-Glo, duplicate, MRP-1 activator project, pilot screen (AID 807);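 note: compound pretreatment 18-22 h then 72 h combined with doxorubicin; 0% = doxorubicin alone and 100% = vehicle without doxorubicin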
Conditions: H69AR viability with doxorubicin, CellTiter-Glo luminescence; at 10 µM; stronger effect = higher value
Items are presented alongside their recorded viability increase.
Kindly provide the numeric value in % only, without the unit symbol.

| Molecule | Endpoint unit | viability increase |
| --- | --- | --- |
| Cc1cc(OC2CCCCC2)nc(-c2ccccc2O)n1 | % | -0.33 |

Form field viability increase, entry `Cc1sc2nc(CSc3nnc(Cc4cccs4)n3C3CCCCC3)[nH]c(=O)c2c1C` : 3.27

Form field viability increase, entry `N#Cc1cc2c(nc1SCC(=O)N1CCCCC1)CCCC2` : -1.73

Form field viability increase, entry `CCOC(=O)N1CCC(Nc2ncnc3c2cnn3-c2ccc(C)cc2C)CC1` : -6.54

Form field viability increase, entry `COCCNC(=O)CN1CCN(Cc2cccc(Cl)c2)C1=O` : -0.8

Form field viability increase, entry CC(NC(=O)C1CCC(=O)N1Cc1ccc(F)cc1)c1ccc2c(c1)OCCO2 (configuration not stated) : -1.94

Form field viability increase, entry `COc1ccc(-n2nnnc2SCC(=O)N2CCOCC2)cc1` : -1.07

Form field viability increase, entry COc1ccc(NC(=O)C2Cc3ccccc3C(=O)O2)cc1 (configuration not stated) : 0.31

Form field viability increase, entry `COc1ccc(-n2c(Cc3cccn3C)nnc2SCC(=O)Nc2ccc(Cl)cc2)cc1` : -6.37

Form field viability increase, entry Cc1oc(-c2ccc(Cl)cc2)nc1CS(=O)CC(=O)NCCN1CCCC1 (configuration not stated) : -1.14

Form field viability increase, entry `Cc1cc(N2CCOCC2)c2c(N)c(Br)cc(C)c2n1` : -5.84

Form field viability increase, entry `CCOC(=O)c1oc2c(CN3CCN(C)CC3)c(O)ccc2c(=O)c1-c1ccccc1OC` : -1.3

Form field viability increase, entry CCN(CC)C(=O)C1CCCN(c2ncnc3c2cnn3-c2ccc(Cl)cc2)C1 (configuration not stated) : 3.1

Form field viability increase, entry CCSc1nnc(N2C(=O)CC(c3ccsc3)C3=C2CC(C)(C)CC3=O)s1 (configuration not stated) : -1.55

Form field viability increase, entry `COc1ccc(C(=O)c2oc3ccc(Br)cc3c2NC(C)=O)cc1` : -3.96

Form field viability increase, entry CC(c1ccco1)N(C(=O)COc1ccc(Cl)cc1Cl)c1ccccn1 (configuration not stated) : -4.89

Form field viability increase, entry `Cc1ccccc1Cn1cc(/C=N/n2cnnc2)c2ccccc21` : -4.78

Form field viability increase, entry `CCOc1cc(-c2nc(-c3ccc(OC)cc3)no2)cc(OCC)c1OCC` : -3.25

Form field viability increase, entry `Cn1c(=O)c2c(nc3sccn32)n(C)c1=O` : -1.33

Form field viability increase, entry `Fc1ccccc1N1CCN(C2CCN(Cc3c[nH]c4ccccc34)CC2)CC1` : -6.63

* * *

Test: S. cerevisiae growth inhibition in permissive medium (OD615), pilot counter-assay for S. cerevisiae lifespan shortening project, permissive growth control (AID 705)
Conditions: OD615, 24 h, at 10 µM, stronger effect = higher value
Items are presented alongside their recorded growth inhibition.
Kindly provide the numeric value in % only, without the unit symbol.

Here are 5 compounds together with their reported answers.
| Compound | Endpoint unit | growth inhibition |
| --- | --- | --- |
| c1csc(CCNc2ncnc3sc4c(c23)CCC4)c1 | % | -5.19 |
| COc1ccc(OCCNS(=O)(=O)c2ccccc2)cc1 | % | -18.1 |
| COc1ccccc1N(CC(=O)NCc1ccccn1)S(C)(=O)=O | % | -1.19 |
| CC1(C)CC(=O)C=C(Nc2ccc(OCC(F)(F)C(F)F)cc2)C1 | % | -3.99 |
| Cc1ccc(NC(=O)CSc2nnc(Cn3c(=O)sc4ccccc43)n2C)cc1 | % | -5.8 |

Form field growth inhibition, entry `O=C(Nc1cccnc1)Nc1ccccn1` : -2.38

Form field growth inhibition, entry `O=C(CN1C(=O)CCC1=O)Nc1nc2c(F)cc(F)cc2s1` : -23

Form field growth inhibition, entry `COCCNC(=O)Cn1ncc2ccsc2c1=O` : -1.34

Form field growth inhibition, entry COc1ccc(NC(=O)NCCN2C(=O)C3C4C=CC(C4)C3C2=O)cc1 (stereo not drawn) : -5.58

Form field growth inhibition, entry NC(=O)C1CCN(CCCNC2CC(=O)N(Cc3ccc(N4CCCC4=O)cc3)C2=O)CC1 (stereo not drawn) : -14.8

Form field growth inhibition, entry `Cc1cc(C(=O)Nc2cccnc2)on1` : -5.72

Form field growth inhibition, entry CCC(C)NC(=O)c1cn(CC)c2ccc(S(=O)(=O)N(C)C)cc2c1=O (stereo not drawn) : 2.96

Form field growth inhibition, entry `CC(=O)c1ccc(NC(=O)CSc2nnc(Cc3cccn3C)n2-c2ccc(F)cc2)cc1` : 0.105

Form field growth inhibition, entry COC(=O)C1=C(N)OC2=C(C(=O)CCC2)C1c1cccs1 (stereo not drawn) : -2.24

Form field growth inhibition, entry CCCC(=O)NC(C)c1nc2ccccc2n1C(C)C (stereo not drawn) : -10.7

Form field growth inhibition, entry `COc1cccc(-n2c(SCC(=O)N3CCCC3)nc3c([nH]c4ccccc43)c2=O)c1` : -8.48

Form field growth inhibition, entry `Cn1c(=O)c2c(nc(CN3CCc4ccccc4C3)n2Cc2cccc(Cl)c2)n(C)c1=O` : -8.07

Form field growth inhibition, entry CCOC(=O)C(CC)n1nc(C)n2c(cc3sccc32)c1=O (stereo not drawn) : -5.97

Form field growth inhibition, entry O=C1c2ccccc2C(Nc2ccc(F)cc2F)N1CCN1CCOCC1 (stereo not drawn) : 0.235

Form field growth inhibition, entry `CCCn1nc2ccccc2c1P(=N)(N1CCOCC1)N1CCOCC1` : -7.87

* * *

Test: yeast transport mutant growth inhibition pilot in 384-well plates, post-Golgi transport modulator project (AID 636)
Settings: absorbance 615 nm, about 18 h, stronger effect = higher value
Active and inactive are the calls of the source. Rule as the data show it: active = inhibition above about 31%; inactive = the rest.
Readout type: inhibition

Here are 5 molecules together with their reported answers.
| Molecule | Reported measurement |
| --- | --- |
| COc1ccc(CNC(=O)c2ccc(CN3CCOCC3)cc2)cc1 | -4% (inactive) |
| Cc1nc2sc(C(c3cccs3)N3CCC(C(N)=O)CC3)c(O)n2n1 (stereo not given) | -3.73% (inactive) |
| CCCc1cc(C(=O)Nc2ccc(C(C)=O)cc2)no1 | 1.92% (inactive) |
| CCCn1c(NCc2cc(C)ccc2O)nc2ccccc21 | -1.73% (inactive) |
| Cn1c(C(=O)NCC2CCCO2)cc2c(=O)n(C)c3ccccc3c21 (stereo not given) | -2.31% (inactive) |

Form field inhibition, entry `Cc1noc(/C=C/N(C)C)c1S(=O)(=O)N1CCc2ccccc21` : 0.13% (inactive)

Form field inhibition, entry `CCOC(=O)Nc1ccc2c(c1)N(C(=O)OCCN(C)C)c1ccccc1CC2` : -7.07% (inactive)

Form field inhibition, entry CCCCN=CC1=C(O)C(C(=O)OC)C(C)(C)CC1=O (stereo not given) : 1.03% (inactive)

Form field inhibition, entry `COc1ccccc1N1CCN(C(=O)C2CCN(S(=O)(=O)c3ccc(F)cc3)CC2)CC1` : -0.27% (inactive)

Form field inhibition, entry COC(=O)c1cccc(NC(=O)C2COc3ccccc3O2)c1C (stereo not given) : -1.71% (inactive)

Form field inhibition, entry `CCOc1ccc(-c2nnc(N(CC)C(=O)C3CCC3)s2)cc1` : -4.21% (inactive)

Form field inhibition, entry `COc1ccc(C(=O)c2ccc(OC)c(N)c2)cc1N` : 1.3% (inactive)

Form field inhibition, entry COc1cc2c(cc1OC)C(c1ccc(C)o1)CC(=O)N2 (stereo not given) : -0.13% (inactive)

Form field inhibition, entry CC(C(=O)Oc1ccc2c(c1)OCO2)N1C(=O)c2ccccc2C1=O (stereo not given) : -1.69% (inactive)

Form field inhibition, entry `Oc1cccc(C=NCc2ccccc2)c1O` : -0.39% (inactive)

Form field inhibition, entry `CC(=O)c1c(OC(=O)c2ccco2)c2ccccc2n1C` : -0.64% (inactive)

Form field inhibition, entry `O=C(Cn1ncc2c1-c1ccccc1OC2)N1CCN(c2ccccn2)CC1` : -2.05% (inactive)
